ASSAY_EXPLANATION: logP determination through HPLC (EEC directive 79/831 Annex V. A8, gradient method, acetonitrile/0.1% aqueous phosphoric acid)
Assay type: physicochemical
COND: HPLC (gradient method); HPLC
ATTRIBUTE_MEASURED: chromatographic logP

Exercise: What does the data say about its chromatographic logP? Entry: Cc1nc2nc(Cl)c(-c3ncncc3Cl)c(NC(C)C(F)(F)F)n2n1 (stereo not shown) [Example 2]
Solution: 2.13

====

Listing of recorded chromatographic logP by entry.
ASSAY_EXPLANATION: logP determination through HPLC (EEC directive 79/831 Annex V. A8, gradient method, acetonitrile/0.1% aqueous phosphoric acid)
Format: physicochemical
COND: HPLC
Form field (numeric): enter value without unit.

Example entries begin here.
Cc1nc2nc(Cl)c(-c3ncccc3C(F)(F)F)c(N[C@@H](C)C(F)(F)F)n2n1: 2.38
Oc1nc2nc(C3CC3)nn2c(O)c1-c1ncccc1C(F)(F)F: 0.47

Exercise: Which value of chromatographic logP has been reported for FC(F)(F)c1cccnc1-c1c(Cl)nc2nc(C3CC3)nn2c1Cl in the records?
Solution: 2.73

Exercise: Do the same for Cc1nc2nc(Cl)c(-c3ncncc3Cl)c(Cl)n2n1 please
Solution: 1.58
